# System: MES-SA
# MEASUREMENT NOTES: relative viability vs DMSO control (72 h) (fraction); higher = more viable cells
# ASSAY CONTEXT: 0.1235 µM
Threshold 0.9: relative viability strictly smaller gives yes, otherwise no.

COMPOUND	CLASS
C=CC(=O)N1CCC(CNc2ncnc(N)c2-c2ccc(Oc3ccccc3)cc2)CC1	no
CC(=O)c1c(C)c2cnc(Nc3ccc(N4CCNCC4)cn3)nc2n(C2CCCC2)c1=O	yes

-- ask Below 0.9 on relative viability? Entry O=C(/C=C\n1cnc(-c2cc(C(F)(F)F)cc(C(F)(F)F)c2)n1)NNc1cnccn1 [Selinexor]
-- reply yes

-- ask Entry to check: COC(=O)c1ccc2c(c1)NC(=O)/C2=C(\Nc1ccc(N(C)C(=O)CN2CCN(C)CC2)cc1)c1ccccc1
-- reply no

-- ask Entry to check: Cc1[nH]c(/C=C2\C(=O)Nc3ccccc32)c(C)c1CCC(=O)O [Orantinib]
-- reply no

-- ask Entry to check: Cc1c2oc3c(C)ccc(C(=O)N[C@@H]4C(=O)N[C@H](C(C)C)C(=O)N5CCC[C@H]5C(=O)N(C)CC(=O)N(C)[C@@H](C(C)C)C(=O)O[C@@H]4C)c3nc-2c(C(=O)N[C@@H]2C(=O)N[C@H](C(C)C)C(=O)N3CCC[C@H]3C(=O)N(C)CC(=O)N(C)[C@@H](C(C)C)C(=O)O[C@@H]2C)c(N)c1=O
-- reply yes

-- ask Entry to check: CS(=O)(=O)CCNCc1ccc(-c2ccc3ncnc(Nc4ccc(OCc5cccc(F)c5)c(Cl)c4)c3c2)o1
-- reply no
